Assay: chemical genetic growth profiling, strain panel (AID 1159580);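 note: tested at 20 µM; growth read once vehicle control cultures reached saturation at 30 °C; 1 = growth at the plate median or of vehicle wells; lower values mean less growth of the strain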
Settings: S. cerevisiae deletion strains, growth OD, locus YHR079C, strain IRE1 (second series)
Screen size: about 5,500 compounds; about 2,000 (36%) were called active. About 18% were inconclusive and are not listed. Cut-off read from the data, not from the text of the source: active = normalized growth mostly below about 0.91 (no sharp cut-off); inconclusive = no clear call, values can overlap the other calls; inactive = mostly above about 0.92. This is one part of the list. Where a SMILES comes first, the peptide text is derived from it.
Select the matching outcome among true = active, false = inactive

Answered examples (5):
Q. For this compound, state the assay outcome: CC1[C@H](C)OC(=O)CC(O)CC(O)CC(O)CCC(O)C(O)C[C@]2(O)CC(O)C(C(=O)O)C(CC(OC3O[C@H](C)[C@@H](O)[C@H](N)[C@@H]3O)/C=C/C=C/C=C/C=C/CC/C=C/C=C/[C@H](C)[C@H]1O)O2 (some centres not stated)
A. true

Q. Same for CCCCCCCCCCCC(=O)OCC(COP(=O)(O)OCC(O)COP(=O)(O)OCC(COC(=O)CCCCCCCCCCC)OC(=O)CCCCCCCCCCC)OC(=O)CCCCCCCCCCC (configuration not stated)
A. false

Q. Same for Cc1oncc1C(=O)Nc1ccc(C(F)(F)F)cc1
A. false

Q. Same for CC(=O)N[C@@H](CC(=O)O)C(=O)N[C@@H](CCC(=O)O)C(=O)O (Ac-Asp-Glu-OH)
A. false

Q. Same for CC(=O)C1CC[C@H]2C3CC[C@H]4C[C@H](O)CC[C@]4(C)C3CC[C@]12C (some centres not stated)
A. false

Others:
Q. For this compound, state the assay outcome: O=C1CCCCC/C=C/CCCCCCCCO1
A. false

Q. Same for Cc1ccc(C(=O)c2ccc(CC(=O)O)n2C)cc1
A. false

Q. Same for CN(C)CCC(c1ccccc1)c1ccccn1 (configuration not stated)
A. false

Q. Same for CC1OC(O[C@H]2/C=C/C=C/C=C/C=C/C=C/C=C/C=C/[C@H](C)[C@@H](O)[C@@H](C)[C@H](C)OC(=O)CC(O)CC(O)CCC(O)C(O)CC(O)C[C@]3(O)C[C@H](O)C(C(=O)O)C(C2)O3)C(O)[C@H](N)C1O (some centres not stated)
A. false

Q. Same for COC(=O)/C(C)=C\CC12OC(C)(C)C3CC(C=C4C(=O)c5c(OC)c6c(c(CC=C(C)C)c5OC431)OC(C)(CCC=C(C)C)C=C6)C2=O (configuration not stated)
A. false

Q. Same for Cc1onc(-c2ccccc2)c1-c1ccc(S(N)(=O)=O)cc1
A. false

Q. Same for O=C(O)C1CCCNC1 (configuration not stated)
A. false

----------
normalized growth values for the molecules below.
Experiment: chemical genetic growth profiling, strain panel (AID 1159580);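 note: tested at 20 µM; growth read once vehicle control cultures reached saturation at 30 °C; 1 = growth at the plate median or of vehicle wells; lower values mean less growth of the strain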
Settings: S. cerevisiae deletion strains, growth OD, locus YCL011C, strain gbp2, active compounds read low
Out of some 5,500 compounds screened, about 2,000 (36%) were called active. Inconclusive results (about 18%) are left out. This is one part of the list.
Please reply with the value in numeric form only.

Known results for molecules:
Q. Look up normalized growth for this molecule: C[C@@H]1CC2C3CCC4=CC(=O)C=C[C@]4(C)[C@@]3(F)[C@@H](O)C[C@]2(C)[C@@]1(O)C(=O)CO (some centres undefined)
A. 0.988

Q. Same for CC(=O)O[C@H]1C[C@@H](OC(C)=O)C(C)(C)C2C[C@@H](OC(C)=O)[C@]3(C)C(CC[C@@]4(C)[C@H](c5ccoc5)OC(=O)[C@H]5O[C@]543)[C@]21C (some centres undefined)
A. 1

Q. Same for C[C@]12CCC3c4ccc(O)cc4CCC3C1CCC2=O (some centres undefined)
A. 1.01

Q. Same for COc1ccc2oc3ccccc3c(=O)c2c1
A. 0.899

Q. Same for COc1ccc(-c2oc3cc(OC)c(OC)c(OC)c3c(=O)c2OC)cc1
A. 0.955

Others:
Q. Look up normalized growth for this molecule: Clc1ccc(COC(Cn2ccnc2)c2ccc(Cl)cc2Cl)c(Cl)c1 (centres undefined)
A. 0.0572

Q. Same for C=NC(C(=O)NC1C(=O)N2C1SC(C)(C)C2C(=O)O)c1ccccc1 (centres undefined)
A. 0.989

Q. Same for CC(=O)OC/C=C(\C)CC/C=C(\C)CC/C=C(\C)CC/C=C(\C)CC/C=C(\C)CC/C=C(\C)CC/C=C(\C)CC/C=C(\C)CCC=C(C)C
A. 0.959

Q. Same for Clc1ccc(CO/N=C(/Cn2ccnc2)c2ccc(Cl)cc2Cl)c(Cl)c1
A. 0.0641
